What % remaining, SIF was measured for each of the following?
# method_description: Stability of compounds in simulated intestinal fluid (SIF)
# Type: in vitro ADME
# experimental_parameters: simulated intestinal fluid (3 mg/mL pancreatin), incubation time 6 hr, relative to t=0

For CN(CCOCCOCCOCCC(=O)O)C(=O)c1cccc(C(=O)Nc2ccc(N3CCCCC3)cc2-c2cc(C(=O)NCc3cccc(C(F)(F)F)c3)ccn2)c1 , write its % remaining, SIF. >80%

For CCN(CC)c1ccc(NC(=O)c2cccc(C(=O)N(C)CCN3CCC[C@H]3C(=O)NCCOCCOCCOCCOCCOCCOCCOCCOC)c2)c(-c2cc(C(=O)N[C@H]3CCCc4ccccc43)ccn2)c1 , write its % remaining, SIF. >80%

For O=C(CCOCCOCCOCCOCCSCc1cccc(C(=O)Nc2ccc(N3CCCCC3)cc2-c2cc(C(=O)NCc3cccc(C(F)(F)F)c3)ccn2)c1)NCCOCCOCCOCCOCCOCCOCCOCCO , write its % remaining, SIF. >80%
